Study Target: canine IL-4RA (construct not given) (canine)
Procedure Summary: SPR, IL-4RA immobilised, periplasmic Fab
Parameter: koff. Scope: all listed entries.
Field: numeric (s⁻¹). Do not append units.

FJ2246MP10H11 (Fab, V domains shown) VH: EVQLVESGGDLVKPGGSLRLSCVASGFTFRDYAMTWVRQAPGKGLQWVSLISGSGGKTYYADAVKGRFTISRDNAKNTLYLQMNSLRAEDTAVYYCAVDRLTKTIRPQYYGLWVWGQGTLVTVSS VL: DIVMTQTPLSLSVSPGETASISCRSSQSLLYSIGYNYLDWYLQKPGQSPQGLIYLGSKRASGVPDRFSGSGSGTDFTLRISRVEANDTGVYYCMQGLHSPLSFGQGTKLEIK : 9.9e-05
FJ2246MP05A04 (Fab, V domains shown) VH: EVQLVESGGDLVKPGGSLRLSCVASGLPFRDYAMTWVRQAPGKGLQWVSLISGSGGKTYYADAVKGRFTISRDNAKNTLYLQMNSLRAEDTAVYYCAVDRLTKTIRPQYYGLWVWGQGTLVTVSS VL: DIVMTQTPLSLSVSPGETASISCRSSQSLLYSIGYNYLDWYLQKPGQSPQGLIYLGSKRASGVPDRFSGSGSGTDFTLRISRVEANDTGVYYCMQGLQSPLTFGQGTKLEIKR : 0.000142

Turning now to a further record.
Sure, the documented koff for FJ2246MP06E01 (Fab, V domains shown) VH: EVQLVESGGDLVKPGGSLRLSCVASGFTFRDYAMTWVRQAPGKGLQWVSLINGSGGKTYYADAVKGRFTISRDNAKNTLYLQMNSLRAEDTAVYYCAVDRLTKTIRPQYYGLWVWGQGTLVTVSS VL: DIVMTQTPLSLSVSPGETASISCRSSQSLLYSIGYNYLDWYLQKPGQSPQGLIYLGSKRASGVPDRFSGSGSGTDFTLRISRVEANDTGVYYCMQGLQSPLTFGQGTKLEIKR is 0.000119
